# system name: T1, LexA (DinR) wild type (Bacillus subtilis, UniProt P31080 1-205)
# T1 sequence: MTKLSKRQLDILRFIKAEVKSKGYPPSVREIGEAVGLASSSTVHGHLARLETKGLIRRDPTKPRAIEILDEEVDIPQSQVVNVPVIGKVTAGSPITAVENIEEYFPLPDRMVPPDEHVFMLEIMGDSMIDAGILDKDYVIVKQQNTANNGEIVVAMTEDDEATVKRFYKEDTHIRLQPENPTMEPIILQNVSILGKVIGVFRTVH
# assay protocol: competition EMSA
measured endpoint: pKi
Would you please state pKi, meaning minus log10 of the concentration in mol/L, as a bare number?

Ask: Which pKi value belongs to recA op T5C,G8A,C9T (preferred) (dsDNA) DNA 1: GGGGGGCGAACATATGTTCGCCCCCC DNA 2: GGGGGGCGAACATATGTTCGCCCCCC ?
Reply: 9.77
